Sourced from patent US10682319B2

# Tested on: HT-29 cells
# protocol text: Necrosis assay (TNF-α/Smac mimetic/z-VAD induced necrosis, cell viability by ATP level)
# Assay type: cell-based
# reported conditions: HT-29, TNF-α + Smac mimetic + z-VAD, 24 hrs, ATP level; values given as ranges in nM; read-out: EC50 (inhibition of necrosis in HT-29 cells)
Entries and their EC50

CCC(C)(C)C(=O)N(C)Cc1ccccc1F [Compound 13]; 1 to 1000 nM

[in] Which EC50 is reported for this molecule? CCC(C)(C)C(=O)N(C)Cc1ccc(Cl)cc1F [Compound 27]
[out] 1 to 1000 nM

[in] State the recorded EC50 for this entry: CCC(C)(C)C(=O)N(CCO)Cc1cc(F)cc(F)c1F [Compound 77]
[out] 1 to 1000 nM

[in] Any idea what its EC50 is? The molecule is CCC(C)(C)C(=O)N(O)Cc1ccc(F)cc1 [Compound 94]
[out] 1 to 1000 nM

[in] Which EC50 reading was recorded for the molecule CCC(C)(C)C(=O)N(C)Cc1ccccc1 [Compound 90, N-benzyl-N,2,2-trimethylbutanamide] ?
[out] 1 to 1000 nM

[in] Given the molecule CCC(C)(C)C(=O)N(O)Cc1cc(F)c(F)c(F)c1 [Compound 99] , what is its reported EC50?
[out] 1 to 1000 nM

====

// values below are reported pIC50
# system under test: Recombinant full-length RIPK1 protein with N-terminal GST-tag (hRIP1 kinase) (Homo sapiens)
# Construct: Recombinant full-length RIPK1 protein with N-terminal GST-tag; GST (N)
# Sequence (Q13546 1-671): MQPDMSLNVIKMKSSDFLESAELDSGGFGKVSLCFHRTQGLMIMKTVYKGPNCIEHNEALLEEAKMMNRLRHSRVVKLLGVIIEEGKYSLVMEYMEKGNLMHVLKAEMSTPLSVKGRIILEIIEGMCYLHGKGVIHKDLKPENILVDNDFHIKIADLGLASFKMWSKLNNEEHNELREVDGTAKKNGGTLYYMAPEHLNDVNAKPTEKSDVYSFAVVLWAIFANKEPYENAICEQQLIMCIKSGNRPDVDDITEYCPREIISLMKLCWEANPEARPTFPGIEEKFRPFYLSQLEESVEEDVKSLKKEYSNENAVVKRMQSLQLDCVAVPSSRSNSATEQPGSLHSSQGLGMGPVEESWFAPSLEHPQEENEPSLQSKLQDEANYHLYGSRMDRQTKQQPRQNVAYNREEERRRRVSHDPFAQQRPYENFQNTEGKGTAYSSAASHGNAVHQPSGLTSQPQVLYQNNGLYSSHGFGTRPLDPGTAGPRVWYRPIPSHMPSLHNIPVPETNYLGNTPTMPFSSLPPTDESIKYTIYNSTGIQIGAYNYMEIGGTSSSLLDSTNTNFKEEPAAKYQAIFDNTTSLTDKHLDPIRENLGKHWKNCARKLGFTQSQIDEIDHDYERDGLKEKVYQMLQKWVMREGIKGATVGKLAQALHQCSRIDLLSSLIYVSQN
# protocol text: Kinase assay of RIPK1 (ADP-Glo)
# reported conditions: RIPK1 161 nM, ATP 50 uM, MBP 20 uM, 90 min
In simple prose, pIC50 is minus the logarithm base ten of a concentration in moles per litre.

CCC(C)(C)C(=O)N(C)Cc1cccc(F)c1 [Compound 16]; 7.28
CCC(C)(C)C(=O)N(O)Cc1cc(F)c(F)c(F)c1 [Compound 99]; 7.53
CCC(C)(C)C(=O)N(O)Cc1ccccc1 [Compound 92]; 7.88

Now look at this entry.
[in] I would be grateful if you could share the reported pIC50 for CCC(C)(C)C(=O)N(C)Cc1cc(F)cc(F)c1F [Compound 75] .
[out] 7.48
